target: human ether-à-go-go-related gene (hERG) potassium channel (human); test: primary screen, population patch clamp on CHO cells stably expressing hERG; higher = less effect of the substance;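 note: peak tail current of the secondary pulse compared with the same well before compound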
The whole screen tested about 310,000 compounds, of which about 14,000 (4.5%) showed an effect of 50% or more. The effect is printed as a negative number. This excerpt belongs to a sample that is enriched for strong results.
Items are presented alongside their recorded hERG current change (%, negative = inhibition) at 10uM.
Use % as the unit, but write only the number.

Examples with their reported hERG current change (%, negative = inhibition) at 10uM follow.
{"Molecule": "Cc1ccc(N(C(=O)c2snc(C(N)=O)c2N)C(C(=O)NCC2CCCO2)c2ccc(C)o2)c(C)c1 (stereo not shown)", "Study Target": "human ether-à-go-go-related gene (hERG) potassium channel (human)", "Reading Unit": "%", "Recorded Value": -40.9}
{"Molecule": "Cc1c(Br)c([N+](=O)[O-])nn1CC(=O)N1CCCc2ccccc21", "Study Target": "human ether-à-go-go-related gene (hERG) potassium channel (human)", "Reading Unit": "%", "Recorded Value": 2.48}
{"Molecule": "Cc1cc(N)n(Cc2cccs2)n1", "Study Target": "human ether-à-go-go-related gene (hERG) potassium channel (human)", "Reading Unit": "%", "Recorded Value": -2.95}
{"Molecule": "Nc1ccc(C(=O)N/N=C2\\CCCc3c2[nH]c2ccccc32)cc1", "Study Target": "human ether-à-go-go-related gene (hERG) potassium channel (human)", "Reading Unit": "%", "Recorded Value": 16.2}
{"Molecule": "CCOC(=O)c1sc(=S)n(-c2cccc(OC)c2)c1N", "Study Target": "human ether-à-go-go-related gene (hERG) potassium channel (human)", "Reading Unit": "%", "Recorded Value": -7.09}
{"Molecule": "O=C(NCCO)c1cc2cc(Cl)cc(Cl)c2oc1=O", "Study Target": "human ether-à-go-go-related gene (hERG) potassium channel (human)", "Reading Unit": "%", "Recorded Value": -3.65}

Known value: human ether-à-go-go-related gene (hERG) potassium channel (human) hERG current change (%, negative = inhibition) at 10uM of the molecule CCC(c1nnc(SCC(=O)NCCc2ccc(Cl)cc2Cl)o1)N(C)C (stereo not shown) equals -19.9

# hERG current change (%, negative = inhibition) at 10uM measured on human ether-à-go-go-related gene (hERG) potassium channel (human) for item "CCN(Cc1ccccc1)c1ccc(/C=N/NS(=O)(=O)c2cccc([N+](=O)[O-])c2)cc1" = 10.3

Log: human ether-à-go-go-related gene (hERG) potassium channel (human), molecule "COc1cccc(-n2c(O)c(C=NCc3ccccn3)c3ccccc3c2=O)c1" , hERG current change (%, negative = inhibition) at 10uM = -26.2

Considering CN(C(=O)C(Cl)Cl)C1CC2C=CC1C2 (stereo not shown) , its hERG current change (%, negative = inhibition) at 10uM with human ether-à-go-go-related gene (hERG) potassium channel (human) was recorded as 5.29

----------
Target: human ether-à-go-go-related gene (hERG) potassium channel (human, UniProt Q12809);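 note: peak tail current of the secondary pulse compared with the same well before compound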
Sequence (Q12809 whole entry, looked up): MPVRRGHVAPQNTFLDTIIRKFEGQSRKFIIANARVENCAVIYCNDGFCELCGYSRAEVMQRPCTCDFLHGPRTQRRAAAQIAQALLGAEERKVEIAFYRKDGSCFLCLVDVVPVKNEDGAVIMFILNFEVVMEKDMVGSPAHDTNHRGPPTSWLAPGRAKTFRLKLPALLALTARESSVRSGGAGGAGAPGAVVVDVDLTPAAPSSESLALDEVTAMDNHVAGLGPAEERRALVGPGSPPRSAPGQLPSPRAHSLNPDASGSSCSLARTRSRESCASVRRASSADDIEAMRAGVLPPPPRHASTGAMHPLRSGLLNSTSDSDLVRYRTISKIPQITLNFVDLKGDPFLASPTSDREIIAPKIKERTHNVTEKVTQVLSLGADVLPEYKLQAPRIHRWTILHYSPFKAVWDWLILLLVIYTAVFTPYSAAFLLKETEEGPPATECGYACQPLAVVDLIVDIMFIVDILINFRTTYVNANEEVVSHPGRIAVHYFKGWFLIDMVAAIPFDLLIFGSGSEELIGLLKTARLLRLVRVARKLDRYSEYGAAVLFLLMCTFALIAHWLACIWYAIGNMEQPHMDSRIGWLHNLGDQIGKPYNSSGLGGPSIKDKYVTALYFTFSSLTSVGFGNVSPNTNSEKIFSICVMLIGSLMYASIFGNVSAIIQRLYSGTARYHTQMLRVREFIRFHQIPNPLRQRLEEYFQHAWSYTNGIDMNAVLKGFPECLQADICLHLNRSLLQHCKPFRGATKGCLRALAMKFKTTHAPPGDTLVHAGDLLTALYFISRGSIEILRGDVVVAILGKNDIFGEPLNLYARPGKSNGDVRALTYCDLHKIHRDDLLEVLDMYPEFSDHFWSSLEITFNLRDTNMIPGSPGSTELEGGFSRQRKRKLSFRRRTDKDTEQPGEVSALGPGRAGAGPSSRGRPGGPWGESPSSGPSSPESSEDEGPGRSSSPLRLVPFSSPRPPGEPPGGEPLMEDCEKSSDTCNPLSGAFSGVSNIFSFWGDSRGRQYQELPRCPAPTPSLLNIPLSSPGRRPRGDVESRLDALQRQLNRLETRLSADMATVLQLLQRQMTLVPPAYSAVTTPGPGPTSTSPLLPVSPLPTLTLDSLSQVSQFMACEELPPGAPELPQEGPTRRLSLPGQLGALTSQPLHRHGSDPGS
Assay: primary screen, population patch clamp on CHO cells stably expressing hERG; higher = less effect of the substance
Protocol: Briefly, Chinese hamster ovary (CHO) cells stably expressing the hERG channel were dislodged from tissue culture flasks and dispensed into PPC plates. […] During the recording, background leak currents were estimated by a 100 ms step to -80 mV from an initial holding potential of -70 mV and subtracted from the subsequent current measurement. The campaign was conducted in two phases using slight differences in recording protocol. […]
Screen size: about 310,000 compounds; about 14,000 (4.5%) showed an effect of 50% or more. Effects have a minus sign here. Only a selection was taken, and strong results are over-represented in it overall.
Property Label: hERG current change (%, negative = inhibition) at 10uM (%)
Please reply with the bare figure in % and do not write the unit itself.

Past entries and their recorded results:
{"Compound": "Cl.O=C(c1ccco1)N1CCN(C(c2ccc(F)cc2)c2nnnn2Cc2cccs2)CC1 (stereo not shown)", "Study Target": "human ether-à-go-go-related gene (hERG) potassium channel (human, UniProt Q12809)", "Recorded Value": -57}
{"Compound": "COc1ccc(SC[C@H](CC(C)C)N2CCN(C)CCC2=O)cc1", "Study Target": "human ether-à-go-go-related gene (hERG) potassium channel (human, UniProt Q12809)", "Recorded Value": -36.3}
{"Compound": "O=C(Nc1cccc(C(=O)O)c1)/C(=C\\c1ccccc1Cl)NC(=O)c1ccco1", "Study Target": "human ether-à-go-go-related gene (hERG) potassium channel (human, UniProt Q12809)", "Recorded Value": 6.89}
{"Compound": "CCOC(=O)c1ccc(NC(=O)COc2ccccc2OC)cc1", "Study Target": "human ether-à-go-go-related gene (hERG) potassium channel (human, UniProt Q12809)", "Recorded Value": 2.1}
{"Compound": "CCOC(=O)c1ccc(NC(=O)COc2ccccc2CNCCO)cc1", "Study Target": "human ether-à-go-go-related gene (hERG) potassium channel (human, UniProt Q12809)", "Recorded Value": -24}
{"Compound": "CCOC(=O)c1ccc(NC(=O)COc2ccccc2CNC2CCCC2)cc1.Cl", "Study Target": "human ether-à-go-go-related gene (hERG) potassium channel (human, UniProt Q12809)", "Recorded Value": -78.1}

Summary for this compound, "COc1ccc(SC[C@H](Cc2ccccc2)N2CC[C@@H](C)CCC2=O)cc1" : hERG current change (%, negative = inhibition) at 10uM is -20.1

Field hERG current change (%, negative = inhibition) at 10uM (entry "COc1ccc(SC[C@H](Cc2ccccc2)N2CCN(CCc3ccccc3)CCC2=O)cc1" ) reads -74.6

hERG current change (%, negative = inhibition) at 10uM reading for "CCCN1CCC(=O)N([C@H](CSc2ccc(OC)cc2)CC(C)C)CC1" : -70.8

The reported value for "COc1ccc(CN2CCC(=O)N([C@H](CO)Cc3ccccc3)CC2)cc1" in terms of hERG current change (%, negative = inhibition) at 10uM is -2.16

Summary for this compound, "O=S(=O)(c1cccc(F)c1)N1CCCN(c2ccc(C(F)(F)F)cn2)CC1" : hERG current change (%, negative = inhibition) at 10uM is -27.3

Record "CCCn1c2ccccc2c2cc(C(=O)O)ccc21" , field hERG current change (%, negative = inhibition) at 10uM: 6.24

----------
molecular target: human ether-à-go-go-related gene (hERG) potassium channel (human, UniProt Q12809); test: primary screen, population patch clamp on CHO cells stably expressing hERG; higher = less effect of the substance;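 note: peak tail current of the secondary pulse compared with the same well before compound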
Among all 310,000 compounds or so, about 14,000 (4.5%) showed an effect of 50% or more. Effects have a minus sign here. The entries come from a sample that favours strong results as a whole.
Listed compounds paired with reported hERG current change (%, negative = inhibition) at 10uM
The reply should contain only the number, in %.

{"Compound": "COc1ccc(CCNC(=O)C2CCN(C(=O)c3ccccc3)CC2)cc1", "Recorded Value": 2.13}

Reported hERG current change (%, negative = inhibition) at 10uM for "Cc1[nH]c2ccc(Br)cc2c(=O)c1CN1CCOCC1" was -27.2

Per the records, this compound ( "O=C(/C=C/c1ccc2c(c1)OCO2)c1c(O)n(CCc2ccccc2)c(=O)[nH]c1=O" ) has hERG current change (%, negative = inhibition) at 10uM equal to 1.79

----------
target: human ether-à-go-go-related gene (hERG) potassium channel (human); assay: primary screen, population patch clamp on CHO cells stably expressing hERG; higher = less effect of the substance;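 note: peak tail current of the secondary pulse compared with the same well before compound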
Screen size: about 310,000 compounds; about 14,000 (4.5%) showed an effect of 50% or more. The effect is printed as a negative number. This is one part of a sample in which strong results are shown more often than they occur.
Measured hERG current change (%, negative = inhibition) at 10uM accompanies every entry in the list below.
Form entry: value (%) — number only.

These recorded examples may help you get a feel for the data.
{"Compound": "CC(C)Cn1c(N)c(C(=O)COC(=O)c2ccc(Cl)cc2)c(=O)n(C)c1=O", "Reading Unit": "%", "Recorded Value": -37.4}
{"Compound": "O=C(COc1ccc2c3c(c(=O)oc2c1)CCCC3)NC(Cc1ccc(Cl)cc1)C(=O)O (stereo not drawn)", "Reading Unit": "%", "Recorded Value": 5.92}
{"Compound": "Cc1ccc(S(=O)(=O)NCCCCCC(=O)N(C)C)cc1", "Reading Unit": "%", "Recorded Value": 6.32}
{"Compound": "CC(C)Cn1c(N)c(C(=O)COC(=O)c2cccc(Cl)c2)c(=O)n(C)c1=O", "Reading Unit": "%", "Recorded Value": -6.08}
{"Compound": "CC1CCCCC1NC(=O)c1cn(C)c2ccc(S(=O)(=O)N3CCCC3)cc2c1=O (stereo not drawn)", "Reading Unit": "%", "Recorded Value": -0.37}

What the record says about COc1cc(C(=O)OC(C)C(=O)NC(=O)NC2CCCCC2)ccc1OC(F)F (stereo not drawn) : hERG current change (%, negative = inhibition) at 10uM is -51.2

Reported hERG current change (%, negative = inhibition) at 10uM ( "O=c1c2ccccc2n2c(=S)[nH]nc2n1-c1ccccc1" ) = 38.4

Summary for this compound, "N#Cc1c(Cl)nc(SCc2ccccc2)nc1-c1ccccc1" : hERG current change (%, negative = inhibition) at 10uM is 8.45

# hERG current change (%, negative = inhibition) at 10uM (compound: "CC(C)Cn1c(N)c(C(=O)COC(=O)c2c(O)c(Cl)cc(Cl)c2Cl)c(=O)n(C)c1=O" ) is -79.8

FYI, the data here is from paper PMC4336329.
